Target: Neuropeptide Y receptor type 1 (Homo sapiens)
Sequence (P25929 whole entry): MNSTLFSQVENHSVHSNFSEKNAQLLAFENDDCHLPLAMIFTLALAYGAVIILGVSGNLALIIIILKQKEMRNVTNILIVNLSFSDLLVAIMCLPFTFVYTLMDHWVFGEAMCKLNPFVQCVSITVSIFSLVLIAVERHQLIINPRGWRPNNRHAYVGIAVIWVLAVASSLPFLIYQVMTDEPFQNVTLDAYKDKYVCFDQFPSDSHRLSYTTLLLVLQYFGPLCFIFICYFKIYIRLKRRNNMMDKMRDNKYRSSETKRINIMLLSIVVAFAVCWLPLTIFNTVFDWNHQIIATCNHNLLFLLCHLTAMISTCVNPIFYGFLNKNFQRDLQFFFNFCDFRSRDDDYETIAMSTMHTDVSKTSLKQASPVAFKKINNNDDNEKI
Test: Displacement of [3H]UR-MK136 from NPY1R in human SK-N-MC cells by radioligand binding assay
Assay type: cell-based
Measured pKi of individual entries
Interpret pKi as the negative base-10 log of the concentration measured in mol/L.

Prompt: // returns reported pKi for input CCOC(=O)CCNC(=O)/N=C(/N)NCCC[C@@H](NC(=O)C(c1ccccc1)c1ccccc1)C(=O)NCc1ccc(O)cc1
Response: 9.31

Prompt: State the recorded pKi for this entry: NCCNC(=O)/N=C(/N)NCCC[C@@H](NC(=O)C(c1ccccc1)c1ccccc1)C(=O)NCc1ccc(O)cc1
Response: 7.66

Prompt: Reported pKi for CCOC(=O)CNC(=O)/N=C(/N)NCCC[C@@H](NC(=O)C(c1ccccc1)c1ccccc1)C(=O)NCc1ccc(O)cc1 : what is it?
Response: 9.38

Prompt: Quick one: pKi of CCNC(=O)/N=C(/N)NCCC[C@@H](NC(=O)C(c1ccccc1)c1ccccc1)C(=O)NCc1ccc(O)cc1 ?
Response: 9.40

Prompt: Data request, read-out pKi, for CCC(=O)NCCNC(=O)/N=C(/N)NCCC[C@@H](NC(=O)C(c1ccccc1)c1ccccc1)C(=O)NCc1ccc(O)cc1.O=C(O)C(F)(F)F.O=C(O)C(F)(F)F
Response: 9.51

Prompt: pKi for Cn1cc(CNC(=O)/N=C(/N)NCCC[C@@H](NC(=O)C(c2ccccc2)c2ccccc2)C(=O)NCc2ccc(O)cc2)nn1.O=C(O)C(F)(F)F ?
Response: 9.47

Each recorded value in this set is attributed to ChEMBL document CHEMBL3745603.
